test: Solubility in water of the cyclodextrin derivatives; type: physicochemical
Quantity Name: solubility

As a guide, the following entries are already answered.
Compound: NC(CC(=O)NC[C@H]1O[C@@H]2O[C@H]3[C@H](O)[C@@H](O)[C@@H](O[C@H]4[C@H](O)[C@@H](O)[C@@H](O[C@H]5[C@H](O)[C@@H](O)[C@@H](O[C@H]6[C@H](O)[C@@H](O)[C@@H](O[C@H]7[C@H](O)[C@@H](O)[C@@H](O[C@H]8[C@H](O)[C@@H](O)[C@@H](O[C@H]1[C@H](O)[C@H]2O)O[C@@H]8CO)O[C@@H]7CO)O[C@@H]6CO)O[C@@H]5CO)O[C@@H]4CO)O[C@@H]3CO)C(=O)O (stereo partly drawn)
Quantity Name: solubility
Result: > 1000 mg/mL

Compound: NC(CCC(=O)NC[C@H]1O[C@@H]2O[C@H]3[C@H](O)[C@@H](O)[C@@H](O[C@H]4[C@H](O)[C@@H](O)[C@@H](O[C@H]5[C@H](O)[C@@H](O)[C@@H](O[C@H]6[C@H](O)[C@@H](O)[C@@H](O[C@H]7[C@H](O)[C@@H](O)[C@@H](O[C@H]8[C@H](O)[C@@H](O)[C@@H](O[C@H]1[C@H](O)[C@H]2O)O[C@@H]8CO)O[C@@H]7CO)O[C@@H]6CO)O[C@@H]5CO)O[C@@H]4CO)O[C@@H]3CO)C(=O)O (stereo partly drawn)
Quantity Name: solubility
Result: > 1000 mg/mL

As a next step, examine the compound that follows.
According to the records, this compound NC(Cc1ccc(OCC(=O)NC[C@H]2O[C@@H]3O[C@H]4[C@H](O)[C@@H](O)[C@@H](O[C@H]5[C@H](O)[C@@H](O)[C@@H](O[C@H]6[C@H](O)[C@@H](O)[C@@H](O[C@H]7[C@H](O)[C@@H](O)[C@@H](O[C@H]8[C@H](O)[C@@H](O)[C@@H](O[C@H]9[C@H](O)[C@@H](O)[C@@H](O[C@H]2[C@H](O)[C@H]3O)O[C@@H]9CO)O[C@@H]8CO)O[C@@H]7CO)O[C@@H]6CO)O[C@@H]5CO)O[C@@H]4CO)cc1)C(=O)O (stereo partly drawn) displays solubility of 900 mg/mL
